B1: library; a variant is named by its letters at N, in order (parent)
chain: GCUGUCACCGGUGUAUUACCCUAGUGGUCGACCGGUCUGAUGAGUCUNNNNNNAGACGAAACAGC

Variants of: B1
Experiment: normalized RNA/DNA level with ligand (relative to sTRSVctl = 100) (log10 (% of sTRSVctl)); ligand: hypoxanthine (xanthine aptamer); higher = less ribozyme self-cleavage, higher mRNA level
Details: ligand concentration (+) RNA-Seq: 5 mM, HEK293T, reporter: mCherry (pCS4076), ligand present: yes
Property: normalized RNA/DNA level with ligand (log10)
Please reply with the number alone, leaving off any unit.

Recorded results for 8 variants are shown here.
GCUGUCACCGGUGUAUUACCCUAGUGGUCGACCGGUCUGAUGAGUCUCGACUAAGACGAAACAGC [CGACUA]    1.95
GCUGUCACCGGUGUAUUACCCUAGUGGUCGACCGGUCUGAUGAGUCUGACGAAAGACGAAACAGC [GACGAA]    1.9
GCUGUCACCGGUGUAUUACCCUAGUGGUCGACCGGUCUGAUGAGUCUGUGAUAAGACGAAACAGC [GUGAUA]    1.89
GCUGUCACCGGUGUAUUACCCUAGUGGUCGACCGGUCUGAUGAGUCUUAGAGUAGACGAAACAGC [UAGAGU]    1.74
GCUGUCACCGGUGUAUUACCCUAGUGGUCGACCGGUCUGAUGAGUCUCCGCGCAGACGAAACAGC [CCGCGC]    1.96
GCUGUCACCGGUGUAUUACCCUAGUGGUCGACCGGUCUGAUGAGUCUCGAGAUAGACGAAACAGC [CGAGAU]    1.94
GCUGUCACCGGUGUAUUACCCUAGUGGUCGACCGGUCUGAUGAGUCUUGGAUCAGACGAAACAGC [UGGAUC]    1.99
GCUGUCACCGGUGUAUUACCCUAGUGGUCGACCGGUCUGAUGAGUCUCCCGAUAGACGAAACAGC [CCCGAU]    1.97

normalized RNA/DNA level with ligand (log10) in this record for GCUGUCACCGGUGUAUUACCCUAGUGGUCGACCGGUCUGAUGAGUCUGAUCCCAGACGAAACAGC [GAUCCC] : 2.05

normalized RNA/DNA level with ligand (log10) in this record for GCUGUCACCGGUGUAUUACCCUAGUGGUCGACCGGUCUGAUGAGUCUAAACAUAGACGAAACAGC [AAACAU] : 1.86

normalized RNA/DNA level with ligand (log10) in this record for GCUGUCACCGGUGUAUUACCCUAGUGGUCGACCGGUCUGAUGAGUCUGGUGACAGACGAAACAGC [GGUGAC] : 1.88

normalized RNA/DNA level with ligand (log10) in this record for GCUGUCACCGGUGUAUUACCCUAGUGGUCGACCGGUCUGAUGAGUCUCGUGACAGACGAAACAGC [CGUGAC] : 1.92

normalized RNA/DNA level with ligand (log10) in this record for GCUGUCACCGGUGUAUUACCCUAGUGGUCGACCGGUCUGAUGAGUCUGAACGGAGACGAAACAGC [GAACGG] : 1.74

normalized RNA/DNA level with ligand (log10) in this record for GCUGUCACCGGUGUAUUACCCUAGUGGUCGACCGGUCUGAUGAGUCUGAUAAAAGACGAAACAGC [GAUAAA] : 1.92

normalized RNA/DNA level with ligand (log10) in this record for GCUGUCACCGGUGUAUUACCCUAGUGGUCGACCGGUCUGAUGAGUCUUCCGUAAGACGAAACAGC [UCCGUA] : 1.96

normalized RNA/DNA level with ligand (log10) in this record for GCUGUCACCGGUGUAUUACCCUAGUGGUCGACCGGUCUGAUGAGUCUACGUCCAGACGAAACAGC [ACGUCC] : 1.96
